assay: Tested for the toxicity after iv administration in SLC-BDF1 male mice; format: organism-based; conditions: SLC-BDF1, mouse, in vivo
Value Type: LD50 (mg/kg)
Reply with just the number (in mg/kg).

Below: 2 compounds and their reported LD50.
                                   compound  observed
0  NC(=O)C1CCCN1C(=O)N(CCCl)N=O (stereo not drawn)       195
1       CN(CC(N)=O)C(=O)N(CCCl)N=O [SARCNU]       427

Please find the next compound below.
q: Please list LD50 recorded for the compound NC(=O)CNC(=O)N(CCCl)N=O
a: 22.4

* * *

system: L1210; assay: Tested for Maximal effective dose against mouse leukemia L1210 cells; type: functional
Value Type: maximal effective dose (mg/kg/day)
Reply with just the number (in mg/kg/day).

Below: 10 compounds and their reported maximal effective dose.
>>> df
                                   compound  quantity_unit  observed
0                  NC(=O)CCNC(=O)N(CCCl)N=O      mg/kg/day        16
1  CC(C)C(NC(=O)N(CCCl)N=O)C(N)=O (centres undefined)      mg/kg/day         8
2  NC(=O)CC(NC(=O)N(CCCl)N=O)C(N)=O (centres undefined)      mg/kg/day         8
3  CC(C)CC(NC(=O)N(CCCl)N=O)C(N)=O (centres undefined)      mg/kg/day        24
4                 NC(=O)CCCNC(=O)N(CCCl)N=O      mg/kg/day        16
5  CSCCC(NC(=O)N(CCCl)N=O)C(N)=O (centres undefined)      mg/kg/day        16
6  NC(=O)C(Cc1ccccc1)NC(=O)N(CCCl)N=O (centres undefined)      mg/kg/day        32
7  NC(=O)C(CO)NC(=O)N(CCCl)N=O (centres undefined)      mg/kg/day         8
8  CC(NC(=O)N(CCCl)N=O)C(N)=O (centres undefined)      mg/kg/day         8
9                   NC(=O)CNC(=O)N(CCCl)N=O      mg/kg/day        16

q: Please list maximal effective dose recorded for the compound CN(CC(N)=O)C(=O)N(CCCl)N=O
a: 225

q: Please list maximal effective dose recorded for the compound NC(=O)C1CCCN1C(=O)N(CCCl)N=O (centres undefined)
a: 64

q: Please list maximal effective dose recorded for the compound NC(=O)C(Cc1ccc(O)cc1)NC(=O)N(CCCl)N=O (centres undefined)
a: 16

q: Please list maximal effective dose recorded for the compound CC(O)C(NC(=O)N(CCCl)N=O)C(N)=O (centres undefined)
a: 8

* * *

system: L1210; test: Tested for Number of 60 days survivors per 5 treated mice against mouse leukemia L1210 cells; type: functional
This listing pairs molecules with measured Survivors.
Respond with the number and no other words.

In [3]: df
Out[3]:
                                   molecule  observed
0                 NC(=O)CCCNC(=O)N(CCCl)N=O         5
1  CC(NC(=O)N(CCCl)N=O)C(N)=O (centres undefined)         5

q: Please list Survivors recorded for the molecule NC(=O)C(Cc1ccccc1)NC(=O)N(CCCl)N=O (centres undefined)
a: 1

q: Please list Survivors recorded for the molecule NC(=O)CNC(=O)N(CCCl)N=O
a: 5

q: Please list Survivors recorded for the molecule NC(=O)CC(NC(=O)N(CCCl)N=O)C(N)=O (centres undefined)
a: 2

q: Please list Survivors recorded for the molecule NC(=O)CCNC(=O)N(CCCl)N=O
a: 5
